Measured values drawn from patent US11464770B2 for this set.

Tested on: prostate cancer cell lines (e.g. DU145/TXR)
test: Cell based assay, cell viability (CellTiter-Glo), prostate cancer cell lines
test.conditions: Homo sapiens, DU-145, DU145 cells, 72 hours treatment, final concentration 0 to 2 μM, read-out: IC50, prostate cancer cell line DU145
value.kind: IC50 (nM)

A = CC(=O)c1c([S+]([O-])Cc2ccc(F)c(Cl)c2)[nH]c2c(Br)ccc(Cl)c2c1=O (centres unmarked)
B = CC(=O)c1c([S+]([O-])Cc2cccc(S(F)(F)(F)(F)F)c2)[nH]c2c(Br)ccc(Cl)c2c1=O (centres unmarked)
Input: I need your help: which of the pair A , B has higher IC50? Returns: label corresponding to the selected item.
Output: A
(A: 1440 nM, B: 930 nM)

1 = CC(=O)c1c([S+]([O-])Cc2ccc(SC(F)(F)F)cc2)[nH]c2c(Br)ccc(Cl)c2c1=O (centres unmarked)
2 = CC(=O)c1c([S+]([O-])Cc2ccc(-n3cccn3)nc2)[nH]c2c(Br)ccc(Cl)c2c1=O (centres unmarked)
Input: Kindly identify which of 1 and 2 has the larger recorded IC50 value. Answer by quoting the chosen item's label.
Output: 1

###

Tested on: breast cancer cell lines (e.g. MDA-MB-231, SK-BR-3, MDA-MB-468, HCC1954)
test: Cell based assay, cell viability (CellTiter-Glo), breast cancer cell lines
test.conditions: Homo sapiens; MDA-MB-468 cells; 72 hours treatment; CellTiter-Glo cell viability; read-out: IC50, Breast cancer cell line MDA-MB-468
pIC50: −log10 of the molar value.
value.kind: pIC50

compound	pIC50
CC(=O)c1c([S+]([O-])Cc2ccc(C(F)(F)F)nc2C)[nH]c2c(Br)ccc(Cl)c2c1=O (centres unmarked)	5.87

a = O=C(c1c([S+]([O-])Cc2ccc(SC(F)(F)F)cc2)[nH]c2c(Br)ccc(Cl)c2c1=O)C1CC1 (centres unmarked)
b = Cc1cc(C[S+]([O-])c2[nH]c3c(Br)ccc(Cl)c3c(=O)c2C(=O)C(C)C)no1 (centres unmarked)
c = CC(=O)c1c([S+]([O-])Cc2cccnc2)[nH]c2c(Br)ccc(Cl)c2c1=O (centres unmarked)
Input: Rank ascending by pIC50. Respond with the label ranking, as requested.
Output: a, c, b
(a: 5.78, c: 5.98, b: 6.33)

###

Test system: KU-19-19: Bladder carcinoma
test: Cell based assay, cytotoxicity in KU19-19 cells
test.conditions: Homo sapiens, 72 hours
Text: Commercially available bladder cancer, prostate cancer, lung cancer, breast cancer, blood cancer, pancreatic cancer, colorectal cancer, brain cancer, neuroblastoma, melanoma, liver cancer, cervical carcinoma, ovarian cancer, renal cancer, and papilloma cell lines were each treated with trypsin-EDTA and cultured, followed by being seeded in each well of a 96 well plate. […]
value.kind: IC50 (µM)
Respond with the bare value in µM.

Input: Look up IC50: CC(=O)c1c([S+]([O-])Cc2ccc(-n3cccn3)nc2)[nH]c2c(Br)ccc(Cl)c2c1=O (stereo not shown)
Output: 1.12

###

System: lung cancer cell lines (e.g. NCI-H23, NCI-H1229)
test: Cell based assay, cell viability (CellTiter-Glo), lung cancer cell lines
test.conditions: Homo sapiens; Lung cancer cell line NCI-H23; 72 hours; cell viability (CellTiter-Glo); read-out: IC50, NCI-H23
value.kind: IC50 (µM)

compound	IC50, µM
CC(=O)c1c([S+]([O-])Cc2ccc(C(F)(F)F)nc2C)[nH]c2c(Br)ccc(Cl)c2c1=O (stereo not shown)	1.26
O=C(c1c([S+]([O-])Cc2ccc(SC(F)(F)F)cc2)[nH]c2c(Br)ccc(Cl)c2c1=O)C1CC1 (stereo not shown)	1.33
